test system: FLT4; conditions: concentration: 1 μM, replicates: in singlicate; n = 1;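 note: KINOMEscan kinase panel screen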
endpointName: %Inh

>  <itemSmiles>
CS(=O)(=O)c1ccc(-c2c(-c3ncn[nH]3)sc(N3CCOCC3)c2C#N)cc1

>  <obsValue>
0%

$$$$
>  <itemSmiles>
Cc1csc(-c2nc(Nc3ccncc3)c3ccccc3n2)n1

>  <obsValue>
6%

$$$$
>  <itemSmiles>
CN1C(=O)C(Nc2ccc(Cl)c(C(=O)O)c2)=C(c2ccc(Cl)cc2)C1=O

>  <obsValue>
0%

$$$$
>  <itemSmiles>
COc1ccc(Nc2nccc(-c3cccc(NC(=O)c4cc5cc(F)ccc5[nH]4)c3)n2)cc1

>  <obsValue>
0%

$$$$

Name the reported %Inh value associated with the compound COc1cc2nccc(Nc3ccc(NC(=O)c4ccc(C)cc4)c(O)c3)c2cc1OC.Cl
0%
